Target: recombinant human secretory phospholipase A2 (Homo sapiens, UniProt P14555)
Sequence (P14555 21-144): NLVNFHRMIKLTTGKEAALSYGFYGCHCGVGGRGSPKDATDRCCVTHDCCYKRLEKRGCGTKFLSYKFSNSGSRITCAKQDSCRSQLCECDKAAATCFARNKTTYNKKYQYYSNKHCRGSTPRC
Assay: Inhibition Test of Human Secretory Phospholipase A2 (chromogenic assay)
Settings: sPLA2 50 ng/well, 40° C., 30 minutes, OD 405 nm, 96 well microtiterplate
Hi there, I'd appreciate the recorded IC50 for every entry that follows.
Supply the numeric figure in nM, leaving out any unit text.

### Prompt Please give the measured IC50 for this compound: CCc1c(C(=O)C(N)=O)c2c(OCC(=O)OC)nc(C)cn2c1Cc1ccccc1-c1cccnc1 [Compound I-65]
### Response 1550

### Prompt Please give the measured IC50 for this compound: CCc1c(C(=O)C(N)=O)c2c(OCC(=O)OC)nc(C)cn2c1Cc1ccc(F)cc1 [Compound I-19]
### Response 562

### Prompt Please give the measured IC50 for this compound: COC(=O)COc1nccn2c(Cc3ccccc3)c(C3CC3)c(C(=O)C(N)=O)c12 [Compound I-3]
### Response 2620

### Prompt Please give the measured IC50 for this compound: CCc1cn2c(Cc3ccccc3)c(CC)c(C(=O)C(N)=O)c2c(OCC(=O)OC)n1 [Compound I-41]
### Response 107

### Prompt Please give the measured IC50 for this compound: CCc1c(C(=O)C(N)=O)c2c(OCC(=O)OC)nc(C)cn2c1Cc1ccccc1Cc1ccccc1 [Compound I-27]
### Response 22

### Prompt Please give the measured IC50 for this compound: CCc1c(C(=O)C(N)=O)c2c(OCC(=O)OC)nc(C)cn2c1Cc1ccccc1-c1ccccc1 [Compound I-21]
### Response 41

### Prompt Please give the measured IC50 for this compound: CCc1c(C(=O)C(N)=O)c2c(OCC(=O)OC)nccn2c1Cc1ccccc1 [Compound I-1]
### Response 208

### Prompt Please give the measured IC50 for this compound: CCc1c(C(=O)C(N)=O)c2c(OCC(=O)O)nc(C)cn2c1Cc1csc2ccccc12 [Compound I-88]
### Response 8

### Prompt Please give the measured IC50 for this compound: COC(=O)COc1nc(C)cn2c(Cc3ccccc3)c(C3CC3)c(C(=O)C(N)=O)c12 [Compound I-75]
### Response 1460

### Prompt Please give the measured IC50 for this compound: CCc1c(C(=O)C(N)=O)c2c(OCC(=O)O)nc(C)cn2c1Cc1ccccc1 [Compound I-18]
### Response 9

### Prompt Please give the measured IC50 for this compound: CCc1c(C(=O)C(N)=O)c2c(OCC(=O)OC)nc(C)cn2c1Cc1ccccc1-c1ccc(OC)cc1 [Compound I-67]
### Response 57

### Prompt Please give the measured IC50 for this compound: COC(=O)COc1nccn2c(Cc3ccccc3)c(C)c(C(=O)C(N)=O)c12 [Compound I-13]
### Response 157

### Prompt Please give the measured IC50 for this compound: CCc1c(C(=O)C(N)=O)c2c(OCC(=O)O)nc(C)cn2c1Cc1cccc(F)c1 [Compound I-36]
### Response 11

### Prompt Please give the measured IC50 for this compound: CCc1c(C(=O)C(N)=O)c2c(OCC(=O)OC)nc(C)cn2c1Cc1cccc(F)c1 [Compound I-35]
### Response 182

### Prompt Please give the measured IC50 for this compound: CCc1c(C(=O)C(N)=O)c2c(OCC(=O)OC)nccn2c1CC1CCCC1 [Compound I-15]
### Response 512

### Prompt Please give the measured IC50 for this compound: CCc1c(C(=O)C(N)=O)c2c(OCC(=O)OCCN3CCOCC3)nc(C)cn2c1Cc1ccc(F)cc1 [Compound I-95]
### Response 175
